Data provenance: patent US20210361776A1

molecular target: T1, human Glypican 3 (GPC3) on GPC3-positive cells (human, UniProt P51654 25-554); assay: competition with AlexaFluor-488 labeled mGPC3-1 on GPC3-positive cells, flow cytometry
T1 construct: whole, on cells; the methods say only 'GPC3-positive cells'; also called hGPC3
T1 sequence (P51654 25-554 limits assumed): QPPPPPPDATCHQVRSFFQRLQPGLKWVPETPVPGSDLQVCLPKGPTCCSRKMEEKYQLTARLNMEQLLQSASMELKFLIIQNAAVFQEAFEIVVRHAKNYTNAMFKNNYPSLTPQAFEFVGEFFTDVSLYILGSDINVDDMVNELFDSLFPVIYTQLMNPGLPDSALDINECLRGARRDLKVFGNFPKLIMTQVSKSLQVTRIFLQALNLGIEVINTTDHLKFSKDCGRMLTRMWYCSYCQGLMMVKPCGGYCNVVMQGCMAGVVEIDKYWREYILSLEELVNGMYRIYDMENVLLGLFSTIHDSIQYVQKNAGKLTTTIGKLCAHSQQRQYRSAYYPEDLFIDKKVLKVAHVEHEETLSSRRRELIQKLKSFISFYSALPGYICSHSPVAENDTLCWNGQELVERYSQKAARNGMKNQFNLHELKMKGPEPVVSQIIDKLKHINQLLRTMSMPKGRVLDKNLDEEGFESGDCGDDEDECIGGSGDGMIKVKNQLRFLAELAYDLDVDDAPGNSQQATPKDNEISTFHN
reportedMetric: pEC50
pEC50 (log units): -log10 of the concentration in mol/L.

[[record]]
binder = "hGPC3-1 HBLB-Q (antibody, V domains shown, Kabat positions) VH: EVQLVQSGAEVKKPGATVKISCKVSGYTFTDYEMHWVQQAPGKGLEWMGGIDPETGGTAYNQKFKGRVTLTADKSTDTAYMELSSLRSEDTAVYYCGRYYSFAYWGQGTLVTVSS VL: DVVMTQSPLSLPVTLGQPASISCRSSQSIVHSQGNTYLQWFQQRPGQSPRLLIYKVSNRFSGVPDRFSGSGSGTDFTLKISRVEAEDVGVYYCFQVSHVPYTFGQGTKLEIK"
reportedmetric = "pEC50"
valuereported = 8.15

[[record]]
binder = "hGPC3-1 HBLB-V (antibody, V domains shown, Kabat position) VH: EVQLVQSGAEVKKPGATVKISCKVSGYTFTDYEMHWVQQAPGKGLEWMGGIDPETGGTAYNQKFKGRVTLTADKSTDTAYMELSSLRSEDTAVYYCGRYYSFAYWGQGTLVTVSS VL: DVVMTQSPLSLPVTLGQPASISCRSSQSIVHSNVNTYLQWFQQRPGQSPRLLIYKVSNRFSGVPDRFSGSGSGTDFTLKISRVEAEDVGVYYCFQVSHVPYTFGQGTKLEIK"
reportedmetric = "pEC50"
valuereported = 8.40

[[record]]
binder = "hGPC3-1 HBLE (antibody, V domains shown, Only variable regions are tied to the antibody; also called lead humanized GPC3-1 antibody) VH: EVQLVQSGAEVKKPGATVKISCKVSGYTFTDYEMHWVQQAPGKGLEWMGGIDPETGGTAYNQKFKGRVTLTADKSTDTAYMELSSLRSEDTAVYYCGRYYSFAYWGQGTLVTVSS VL: DVVMTQSPLSLPVTLGQPASISCRSSQSIVHSNANTYLQWFQQRPGQSPRLLIYKVSNRFSGVPDRFSGSGSGTDFTLKISRVEAEDVGVYYCFQVSHVPYTFGQGTKLEIK"
reportedmetric = "pEC50"
valuereported = 8.52

[[record]]
binder = "hGPC3-1 HBLD (antibody, V domains shown, Kabat positions) VH: EVQLVQSGAEVKKPGATVKISCKVSGYTFTDYEMHWVQQAPGKGLEWMGGIDPETGGTAYNQKFKGRVTLTADKSTDTAYMELSSLRSEDTAVYYCGRYYSFAYWGQGTLVTVSS VL: DVVMTQSPLSLPVTLGQPASISCRSSQSIVHSDGNTYLQWFQQRPGQSPRLLIYKVSNRFSGVPDRFSGSGSGTDFTLKISRVEAEDVGVYYCFQVSHVPYTFGQGTKLEIK"
reportedmetric = "pEC50"
valuereported = 7.13


Could you now consider this next binder?
Which pEC50 is reported for this binder? hGPC3-1 HBLB (antibody, V domains shown, Kabat position) VH: EVQLVQSGAEVKKPGATVKISCKVSGYTFTDYEMHWVQQAPGKGLEWMGGIDPETGGTAYNQKFKGRVTLTADKSTDTAYMELSSLRSEDTAVYYCGRYYSFAYWGQGTLVTVSS VL: DVVMTQSPLSLPVTLGQPASISCRSSQSIVHSNGNTYLQWFQQRPGQSPRLLIYKVSNRFSGVPDRFSGSGSGTDFTLKISRVEAEDVGVYYCFQVSHVPYTFGQGTKLEIK
8.52
